Test system: Aconitineinduced arrhythmia, rats
Test: animal or person
Type: in vivo, rats (Sprague Dawley)
Conditions: relative activity; quinidine = 1.00
R.A. (relative activity) overview

[
  {
    "Molecule": "Cc1nc(Cc2ccccc2)c2c(c1OCCCCNC(C)(C)C)COC2",
    "R.A. (relative activity)": 4.60
  },
  {
    "Molecule": "CCc1nc(Cc2ccccc2)c2c(c1OCCCN(C)C)COC2",
    "R.A. (relative activity)": 2.34
  },
  {
    "Molecule": "COC(=O)c1c(Cc2ccccc2)nc(C)c(OCCCN(C)C)c1C(=O)OC",
    "R.A. (relative activity)": 4.35
  },
  {
    "Molecule": "Cc1nc(Cc2ccccc2)c2c(c1OCCCN1CCNCC1)COC2",
    "R.A. (relative activity)": 1.48
  },
  {
    "Molecule": "Cc1nc(Cc2ccccc2)c2c(c1OCCCCCNC(C)C)COC2",
    "R.A. (relative activity)": 2.64
  },
  {
    "Molecule": "Cc1nc(Cc2ccccc2)c2c(c1OCC(O)CNC(C)C)COC2.Cl (stereo not shown)",
    "R.A. (relative activity)": 1.84
  },
  {
    "Molecule": "Cc1nc(Cc2ccccc2)c2c(c1OCCN(C)C)COC2.Cl.Cl",
    "R.A. (relative activity)": 1.36
  },
  {
    "Molecule": "Cc1nc(Cc2ccccc2)c2c(c1OCCCCNCCC(C)(C)O)COC2",
    "R.A. (relative activity)": 2.70
  },
  {
    "Molecule": "CCN(CC)CCC(C)CCOc1c(C)nc(Cc2ccccc2)c2c1COC2 (stereo not shown)",
    "R.A. (relative activity)": 3.74
  },
  {
    "Molecule": "Cc1nc(Cc2ccccc2)c2c(c1OCCC(C)CCNC(C)C)COC2 (stereo not shown)",
    "R.A. (relative activity)": 3.47
  },
  {
    "Molecule": "CCOC(=O)c1c(Cc2ccccc2)nc(C)c(OCCCN(C)C)c1C(=O)OCC",
    "R.A. (relative activity)": 2.67
  },
  {
    "Molecule": "Cc1nc(Cc2ccccc2)c2c(c1OCCCCN(C(C)C)C(C)C)COC2",
    "R.A. (relative activity)": 2.01
  },
  {
    "Molecule": "CCCN(CCC)CCCOc1c(C)nc(Cc2ccccc2)c2c1COC2",
    "R.A. (relative activity)": 2.01
  }
]
